Measured values drawn from paper PMC11552376 for this set.

# experimental.target: T1, AtPIF3-bHLH R356A (Arabidopsis thaliana, UniProt O80536 340-397, R356A)
# T1 sequence: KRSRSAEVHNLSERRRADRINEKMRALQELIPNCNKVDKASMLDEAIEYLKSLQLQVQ
# assay.remarks: ITC; error exceeds value; ITC: 30 mM HEPES, 125 mM NaCl, pH 7.5, 25 C, 400 uM protein into 40 uM DNA; fEMSA: 30 mM HEPES, 500 mM NaCl, pH 7.4, on ice 30 min, 3 uM probe, 10% native gel in 0.5x TBE at 4 C
# condition.description: protein: recombinant; tags: C-terminal His6; chain copies: 2; blunt

binder	result.unit	Kd
G-box (PER2), ITC (dsDNA) DNA 1: AGGAACACGTGACCC DNA 2: GGGTCACGTGTTCCT	µM	106
